Entries and their inhibition values follow.
system: Yersinia pseudotuberculosis YPIII; experiment: Inhibition of T3S in Yersinia pseudotuberculosis YPIII expressing yopE-luxAB at 6.25 uM after 3 hrs by luciferase reporter gene assay
REPORTED ENDPOINT: inhibition (%)

INSERT INTO assay_data (smiles_data, unit_string, reported_measurement) VALUES
  ('COc1cccc(C(=O)N/N=C/c2cc(OC)cc(OC)c2O)c1', '%', 9),
  ('O=C(COc1ccc([N+](=O)[O-])cc1)N/N=C/c1cccc(F)c1O', '%', 6),
  ('CC(C)(C)c1cc(/C=N/NC(=O)COc2ccc([N+](=O)[O-])cc2)c(O)c(C(C)(C)C)c1', '%', 7),
  ('O=C(CCc1ccc(F)cc1)N/N=C/c1cc(F)cc(Cl)c1O', '%', -1),
  ('O=C(CC12CC3CC(CC(C3)C1)C2)N/N=C/c1ccc(Cl)cc1O', '%', 18);

Sourced from ChEMBL document CHEMBL1156948
